- SYSTEM TESTED: Solute carrier family 2, facilitated glucose transporter member 1 (Homo sapiens)
- TEST DESCRIPTION: ST_JUDE_LEISH: Cytotoxicity at 2uM final concentration against transgenic Leishmania Mexicana promastigotes LmGLUT1 that are glucose transport deficient and complemented with the human glucose transporter GLUT1. Activity is measured by DNA content using SYBR green in vitro
- Assay type: functional
MEASURED PROPERTY: inhibition (%)
Numbers only; they are read as %.

Item O=C(c1ccc(Cl)cc1Cl)N1CCCC(C(F)(F)F)C1 (stereo not given) with Solute carrier family 2, facilitated glucose transporter member 1 (Homo sapiens) - inhibition? 8.69

Cool, now CCCCc1ccc(NC(=O)Nc2cccc(CCNCc3ccccc3)c2)cc1 11.8

Cool, now COc1ccccc1C1CCN(C2CCC(NC(=O)/C=C/c3ccc(OC(F)(F)F)cc3)CC2)CC1 (stereo not given) 0.94

Cool, now CC(C)N1CCC(N(Cc2ccc(-c3ccc(C(F)(F)F)cc3)cc2)C(=O)Cn2c(SCc3cccc(F)c3F)cc(=O)c3c2CCC3)CC1 4.88

Cool, now CC(C)Nc1cc(C(=O)N[C@@H](Cc2ccccc2)[C@H](O)CNC2CCCCC2)cc(N2CCCCS2(=O)=O)c1 0.23

Cool, now Cc1cc(=NN=Cc2ccccc2Cl)c2cc(C(F)(F)F)ccc2[nH]1 -0.33

Cool, now O=S(=O)(NCCN1CCCC1)c1ccc(-c2cccc(CNCc3ccsc3)c2)s1 5.4

Cool, now N#Cc1ccc2c(c1)CCN(CCC1CCC(NC(=O)/C=C/c3cccc4ccccc34)CC1)CC2 (stereo not given) 4.36

Cool, now COc1cccc2c(NN=Cc3cccc(Cl)c3)cc(C)nc12 -0.65

Cool, now Cc1c(Cl)cccc1S(=O)(=O)Nc1cccc(CCN2CCC(N3CCCCC3)CC2)c1 2.7

Cool, now Nc1nc(N)c2c(Cl)c(N(Cc3ccccc3)Cc3ccccc3)ccc2n1 23.6

Cool, now COc1ccccc1C1CCN(C2CCC(NC(=O)/C=C/c3ccc(F)c(F)c3)CC2)CC1 (stereo not given) -3.94

Cool, now Cc1cc(N/N=C/c2ccc([N+](=O)[O-])cc2)c2ccc(F)cc2n1 2.33

Cool, now CC(C)NCc1cccc(-c2ccc(-c3nc4ccccc4[nH]3)cc2)c1 3.1

Cool, now CN1CCC(N2CCN(Cc3cccc(-c4cccc(-c5nc6ccccc6[nH]5)c4)c3)CC2)CC1 -4.87

Cool, now Cc1cccc2nc(-c3ccc(-c4ccc(CN5CCN(C6CCN(C)CC6)CC5)cc4)s3)[nH]c12 0.65

Cool, now C(=N\Nc1nccc2sc(-c3ccccc3)cc12)/c1cccnc1 4.32

Cool, now O=C(NC1CCC(CCN2Cc3ccc(Br)cc3C2)CC1)c1cccc(-c2cccnc2)c1 (stereo not given) 3.16

Cool, now O=C(Nc1ccc(Cl)c(Cl)c1)Nc1cc(C(F)(F)F)ccc1Cl -0.56

Cool, now CN(C)CCCNCCS(=O)(=O)c1cccc(Nc2ccc(-c3cccc(N(C)C)c3)cn2)c1 1.72

###

- SYSTEM TESTED: Solute carrier family 2, facilitated glucose transporter member 1 (Homo sapiens)
- TEST DESCRIPTION: ST_JUDE_LEISH: Cytotoxicity at 2uM final concentration against transgenic Leishmania Mexicana promastigotes LmGLUT1 that are glucose transport deficient and complemented with the human glucose transporter GLUT1. Activity is measured by DNA content using SYBR green in vitro
- Type: functional
MEASURED PROPERTY: inhibition (%)
Numbers only; they are read as %.

Record request: inhibition value, item O=C(NC(CCCN1CCC2(CC1)OCc1ccccc12)c1ccc(Cl)c(Cl)c1)c1cc(C(F)(F)F)cc(C(F)(F)F)c1 (centres undefined) 1.7

Cool, now Cc1[nH]c(C)c(-c2ccc(Br)cc2)c(=O)c1Cl 4.57

Cool, now CC(C)N1CCC(N(Cc2ccc(-c3ccc(C(F)(F)F)cc3)cc2)C(=O)Cn2c(CCc3cccc(F)c3F)cc(=O)c3cn(C)nc32)CC1 10.3

Cool, now CCC(C)NS(=O)(=O)c1ccc2nc(Nc3ccc(C)c(Cl)c3)n([C@H](C)C(C)(C)C)c2c1 (some centres undefined) 2.63
